These measurements were taken from patent US20220204611A1.

Target: T1, recombinant soluble human TREM2 protein (human TREM2 ECD-FlagHis) (human, UniProt Q9NZC2 19-174)
T1 sequence: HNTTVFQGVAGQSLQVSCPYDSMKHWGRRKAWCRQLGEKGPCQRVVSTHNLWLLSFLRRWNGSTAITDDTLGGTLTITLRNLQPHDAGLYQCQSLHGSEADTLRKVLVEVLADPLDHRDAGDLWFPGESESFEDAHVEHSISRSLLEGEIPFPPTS
Assay: Octet BLI binning; competitor: load Ab 4G10
Method: Each of sixteen different anti-TREM2 antibodies produced from hybridomas were quantitated and loaded onto one of the anti-human Fc sensors at 5 μg/mL for 2 minutes (“Load Antibody”). The sensor was then blocked with 100 μg/mL of an irrelevant human IgG2 antibody for 5 minutes. […] Next, each of the sixteen different anti-TREM2 antibodies (“Sandwich Antibody”) was added to the sensor at 5 μg/mL and allowed to bind for 5 minutes. […]
assay-metric: sandwich binding signal
Reply with the value as a number alone.

Recorded sandwich binding signal, per entry:
4C5 (antibody, V domains shown, human IgG2 from hybridoma) VH: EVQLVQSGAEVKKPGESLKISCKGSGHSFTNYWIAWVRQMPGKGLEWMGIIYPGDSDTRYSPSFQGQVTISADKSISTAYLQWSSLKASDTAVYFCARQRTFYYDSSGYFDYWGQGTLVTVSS VL: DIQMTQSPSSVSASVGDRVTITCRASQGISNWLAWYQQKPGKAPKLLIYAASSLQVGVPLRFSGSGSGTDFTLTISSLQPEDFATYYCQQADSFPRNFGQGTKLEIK ... -0.011
10E3 (antibody, human IgG2, V domains shown, human IgG2 from hybridoma) VH: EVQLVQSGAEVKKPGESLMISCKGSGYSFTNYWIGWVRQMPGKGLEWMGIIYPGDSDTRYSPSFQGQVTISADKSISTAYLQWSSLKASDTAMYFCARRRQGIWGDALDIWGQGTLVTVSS VL: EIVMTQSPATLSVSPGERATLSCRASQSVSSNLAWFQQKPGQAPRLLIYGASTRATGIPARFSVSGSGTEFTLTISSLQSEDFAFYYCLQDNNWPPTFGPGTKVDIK ... -0.008
32E3 (antibody, human IgG2, V domains shown, human IgG2 from hybridoma) VH: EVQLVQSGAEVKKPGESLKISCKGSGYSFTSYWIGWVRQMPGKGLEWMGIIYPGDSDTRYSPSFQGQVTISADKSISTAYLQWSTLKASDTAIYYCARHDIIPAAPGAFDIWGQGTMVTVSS VL: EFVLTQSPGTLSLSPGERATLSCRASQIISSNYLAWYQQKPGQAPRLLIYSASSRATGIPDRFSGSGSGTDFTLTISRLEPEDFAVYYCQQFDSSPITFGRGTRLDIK ... -0.02

From here, focus on the item given below.
Ask: # sandwich binding signal lookup, item 4G10 (antibody, human IgG2, V domains shown, human IgG2 from hybridoma) VH: EVQLVQSGAEVKKPGESLKISCKGSGYSFPSYWIAWVRQMPGKGLEWMGIIYPGDSDTRYSPSFQGQVTISADKSISTAFLKWSSLKASDTAMYFCARQGIEVTGTGGLDVWGQGTTVTVSS VL: DIQMTQSPSSLSASVGDRVTITCRASQGIRNDLGWYQQKPGNAPKRLIYAASSLPSGVPSRFSGSGSGPEFTLTISSLQPEDFATYYCLQHNSYPWTFGQGTKVEIT
Reply: -0.026
